Catalogue of pest or weed control at 1 % readings, one per entry.
system: carbon dioxide-sensitive sensory hair of an Asian tiger mosquito; experiment: Evaluation of carbon dioxide response-inhibiting effect (nerve firing recording of sensory hair); type: in vivo; conditions: Aedes albopictus, 1 s; fragrance 1% in paraffin oil, 15 μL on filter paper, olfactory stimulation 1 second; nerve firings relative to paraffin oil; N=1; read-out: Inhibition of carbon dioxide response (%)
Could you give the number and then its unit, please?

[
  {
    "compound": "CCCCC(CC)C(=O)OCC (stereo not shown) [Ethyl 2-ethylhexanoate, ethyl 2-ethylhexanoate]",
    "pest or weed control at 1 %": "51%"
  }
]

Looking up CC/C=C\CCOC(C)=O [cis-3-Hexenyl acetate, cis-3-hexenyl acetate] , I see its pest or weed control at 1 % listed as 50%

###

In this section, each of the compounds is paired with its reported pest or weed control at 1 %.
tested on: carbon dioxide-sensitive sensory hair of an Asian tiger mosquito; assay: Evaluation of carbon dioxide response-inhibiting effect (nerve firing recording of sensory hair); assay type: in vivo; settings: Aedes albopictus, 1 s; fragrance 1% in paraffin oil, 15 μL on filter paper, olfactory stimulation 1 second; nerve firings relative to paraffin oil; N=1; read-out: Inhibition of carbon dioxide response (%)
Give the number; % is assumed, so skip it.

[
  {
    "compound": "Cc1csc(C(C)C)n1 [2-Isopropyl-4-methylthiazol, 2-isopropyl-4-methylthiazol]",
    "measured_on": "carbon dioxide-sensitive sensory hair of an Asian tiger mosquito",
    "pest or weed control at 1 % [%]": 71
  },
  {
    "compound": "CC1=CC(C)C(CO)CC1 (centres unmarked) [2,4-Dimethylcyclohex-3-ene-1-methanol, 2,4-dimethylcyclohex-3-ene-1-methanol]",
    "measured_on": "carbon dioxide-sensitive sensory hair of an Asian tiger mosquito",
    "pest or weed control at 1 % [%]": 67
  }
]

Sure, the documented pest or weed control at 1 % for C=CC(O)CCCCC (centres unmarked) [1-Octen-3-ol, 1-octen-3-ol] is 55

Measured pest or weed control at 1 %, CCCCCCCCCCO [1-Decanol, 1-decanol] : 54

pest or weed control at 1 % reported for this compound CCOC(=O)C(C)C1CCCCC1 (centres unmarked) [Ethyl 2-cyclohexylpropionate, ethyl 2-cyclohexylpropionate] : 48

In plain terms, CCCCCC1=C(C)CCC1=O [3-Methyl-2-pentylcyclopent-2-en-1-one, 3-methyl-2-pentylcyclopent-2-en-1-one] has a documented pest or weed control at 1 % of 68

Note to self: pest or weed control at 1 % recorded for CC(=O)OC1CCCCC1C(C)(C)C (centres unmarked) [o-tert-Butylcyclohexyl acetate, o-tert-butylcyclohexyl acetate] was 87

Query CCC/C=C/COC(C)=O [trans-2-Hexenyl acetate, trans-2-hexenyl acetate] yields pest or weed control at 1 % of 48

Consider C=CCCCCCCCCO [9-Decen-1-ol, 9-decen-1-ol] . Its measured pest or weed control at 1 % is 56

The value of pest or weed control at 1 % measured for the compound CCCCCCCCO [1-Octanol, 1-octanol] turned out to be 97

Lookup result for CCC(=O)OCc1ccccc1 [Benzyl propionate, benzyl propionate] ; measured pest or weed control at 1 %: 97

Entry under test: CC1=CC(C)C(CO)C(C)C1 (centres unmarked) [2,4,6-Trimethyl-3-cyclohexene-1-methanol, 2,4,6-trimethyl-3-cyclohexene-1-methanol] . Its pest or weed control at 1 % was 61

Lab book: pest or weed control at 1 % of CCOC(=O)Cc1ccccc1 [Ethyl phenylacetate, ethyl phenylacetate] noted as 79

// recorded pest or weed control at 1 % for CCCc1ccc(O)c(OC)c1 [2-Methoxy-4-propylphenol, 2-methoxy-4-propylphenol] : 95
